// provenance: paper PMC4207410

Target: 5-LO (Homo sapiens, UniProt P09917)
Experiment: 5-LO products biosynthesis assay in thapsigargin-stimulated human PMNL
Type: cell-based
Parameters: 5-LO is highly expressed in PMNL; endogenous in cells; host or cells: human PMNL from peripheral blood
Conditions: comparison of IC50 values, thapsigargin-stimulated human PMNL
endpoint.name: potency relative to Zileuton (1) in human PMNL

1) O=C(/C=C/c1ccc(O)c(O)c1)OCCn1cc(-c2ccc(F)cc2)nn1 [15g] :: equivalent to Zileuton
2) Cc1ccc(-c2cn(CCOC(=O)/C=C/c3ccc(O)c(O)c3)nn2)cc1 [15f] :: equivalent to Zileuton

====

Target: 5-LO (Homo sapiens, UniProt P09917)
Experiment: 5-LO products biosynthesis assay in whole HEK293 cells stably transfected with 5-LO and FLAP
Format: cell-based
Parameters: expressed in transfected cells
Details: comparison of IC50 values, HEK293 cells
endpoint.name: potency relative to Zileuton (1) in HEK293 cells

1) Cc1ccc(-c2cn(CCNC(=O)/C=C/c3ccc(O)c(O)c3)nn2)cc1 [16f] :: equipotent to Zileuton
2) O=C(/C=C/c1ccc(O)c(O)c1)NCCn1cc(-c2ccc(F)cc2)nn1 [16g] :: equipotent to Zileuton

====

Target: 5-LO (Homo sapiens, UniProt P09917)
Sequence (P09917 1-674): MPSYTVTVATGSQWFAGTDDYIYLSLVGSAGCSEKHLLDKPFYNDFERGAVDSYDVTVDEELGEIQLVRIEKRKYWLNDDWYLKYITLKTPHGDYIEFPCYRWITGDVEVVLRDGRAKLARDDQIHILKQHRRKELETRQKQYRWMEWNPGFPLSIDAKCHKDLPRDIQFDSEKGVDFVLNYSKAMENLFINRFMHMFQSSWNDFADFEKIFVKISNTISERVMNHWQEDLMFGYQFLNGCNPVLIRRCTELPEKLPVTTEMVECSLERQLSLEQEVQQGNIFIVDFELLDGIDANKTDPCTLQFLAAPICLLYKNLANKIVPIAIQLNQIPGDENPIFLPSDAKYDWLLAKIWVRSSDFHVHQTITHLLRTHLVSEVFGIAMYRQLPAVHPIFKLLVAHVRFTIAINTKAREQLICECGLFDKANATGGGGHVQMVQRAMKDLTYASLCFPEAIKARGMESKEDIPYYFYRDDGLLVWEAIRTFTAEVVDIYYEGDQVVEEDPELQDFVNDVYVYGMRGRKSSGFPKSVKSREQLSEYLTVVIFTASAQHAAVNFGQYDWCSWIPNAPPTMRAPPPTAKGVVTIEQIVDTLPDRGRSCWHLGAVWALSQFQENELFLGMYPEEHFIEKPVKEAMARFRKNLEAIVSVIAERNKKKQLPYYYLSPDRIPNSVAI
Test: 5-LO products biosynthesis assay in thapsigargin-stimulated human PMNL
Format: cell-based
Design: 5-LO is highly expressed in PMNL; endogenous in cells; host or cells: human PMNL from peripheral blood
Settings: read-out: Human PMNL IC50 (μM) [SD]
endpoint.name: IC50 (µM)
Numbers only, in µM.

See these solved cases before continuing.
1) Cc1ccc(-c2cn(CCNC(=O)/C=C/c3ccc(O)c(O)c3)nn2)cc1 [16f] :: 8.2
2) O=C(/C=C/c1ccc(O)c(O)c1)OCCn1cc(-c2ccc(F)cc2)nn1 [15g] :: 3.3
3) Cc1ccc(-c2cn(CCOC(=O)/C=C/c3ccc(O)c(O)c3)nn2)cc1 [15f] :: 3.1

Please report the measured IC50 for O=C(/C=C/c1ccc(O)c(O)c1)NCCn1cc(-c2ccc(F)cc2)nn1 [16g] tested on 5-LO (Homo sapiens, UniProt P09917).
8.8
